- setup_conditions: buffer; pH 7.4; 200.0 µM
# reported solubility kinetic; entries follow
State the answer as a number, implicitly in µg/mL.

Record excerpt, results attached:
>>> print(df.to_string())
                                 mol_smiles  output_unit  experimental_result
0  CCCN(CCC)C(=O)c1cc2c(=O)n3cccc(C)c3nc2s1        µg/mL                 34.7
1                 Cc1cccc(C(=O)OCc2cncs2)c1        µg/mL                 28.9
2                  c1ccc(-c2ncc3ccccn23)cc1        µg/mL                 19.1
3         CC(=O)Oc1ccc(C(=O)Nc2cc(C)on2)cc1        µg/mL                 38.1

# input Need solubility kinetic of O=C(NC1CCN(C(=O)NCc2ccccc2)CC1)c1cccc(F)c1 , thanks.
# output 3.4

---

- setup_conditions: buffer; pH 7.4; 200.0 µM
# reported solubility kinetic; entries follow

Record excerpt, results attached:
In [3]: df
Out[3]:
                                   compound            endpoint  experimental_result
0  CN(Cc1ccccc1)S(=O)(=O)c1ccccc1[N+](=O)[O-]  solubility kinetic           15.3 µg/mL
1  O=C1/C(=C/c2ccc(O)cc2)SC(=S)N1CC1CCCO1 (stereo unspecified)  solubility kinetic            1.3 µg/mL

# ---- query compound ----
# input Need solubility kinetic of COC(=O)c1c(NC(=O)C2CC2)sc(C(=O)Nc2ccccc2)c1C , thanks.
# output 1.7 µg/mL

---

# reported solubility kinetic; entries follow
- setup_conditions: buffer; pH 7.4; 200.0 µM
State the answer as a number, implicitly in µg/mL.

Record excerpt, results attached:
>>> print(df.to_string())
                                   compound  experimental_result
0           O=C(CCCc1cccs1)Nc1ccc2c(c1)OCO2                 39.2
1      C[C@@H]1NC(=O)/C(=C\c2ccccc2Cl)NC1=O                 12.8
2  CC(C)CNC(=O)C(=O)Nc1cc2c3c(c1)CCC(=O)N3CCC2                    5
3  COc1ccc2c(c1)c1ncn(Cc3ccc(F)cc3)c(=O)c1n2C                  2.5
4       O=C(COC(=O)c1ccc(F)cc1)NCCCc1ccccc1                  5.9

# input Need solubility kinetic of CN(C(=O)COC(=O)c1cc2ccccc2oc1=O)C1CCCCC1 , thanks.
# output 47.7

# input Need solubility kinetic of CCN(CC)C(=O)C1CCCN(C/C=C/c2ccccc2[N+](=O)[O-])C1 (centres undefined) , thanks.
# output 41.7

---

# reported solubility kinetic; entries follow
- setup_conditions: buffer; pH 7.4; 200.0 µM

# input Need solubility kinetic of O=C(Cc1c(Cl)cccc1Cl)NC1CC1 , thanks.
# output > 36.6 µg/mL

---

# reported log10(solubility kinetic); entries follow
- setup_conditions: buffer; pH 7.4; 200.0 µM
Plainly stated, the numbers are log10 of solubility kinetic given in µg/mL.

Record excerpt, results attached:
In [3]: df
Out[3]:
                                   compound  experimental_result
0        CC(C)(C)c1ccc(OCC(=O)Nc2ccncc2)cc1                 0.57
1   CC(C)N(C(=O)Cn1c(=O)oc2ccccc21)c1ccccc1                -0.15
2       CCOC(=O)CCCNC(=O)COC(=O)c1cccc(F)c1                 1.65
3  CCOc1ccc(C(C)=O)cc1Cc1c(O)[nH]c(=S)[nH]c1=O                 1.67
4        COc1ccc(NC(=O)CCC(=O)c2cccs2)cc1Cl                 0.81
5         Cc1cccc(-n2cnc3sc(C)c(C)c3c2=O)c1                 0.40
6               N#Cc1ccc(OC(=O)c2cnccn2)cc1                 1.50
7     Cc1ccc(C(=O)Nc2c(C)cc(C)c3cccnc23)cc1                -0.30

# ---- query compound ----
# input Need log10(solubility kinetic) of FC(F)(F)c1ccccc1N1CC1c1ccncc1 (configuration not stated) , thanks.
# output 1.49
